experiment: Novel Modifiers of Survival Motor Neuron (SMN) Protein: Gene Identification via Genome-wide siRNA Screen; conditions: HEK293T SMN2-luciferase reporter, siRNA knockdown, 72 h; actives lie on both sides;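 further: luminescence tracks full-length SMN protein made from the SMN2 reporter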
The whole screen tested about 31,000 sequences, of which about 1,400 (4.5%) were called active. The entries come from a sample that favours actives as a whole.
measured_attribute: median seed-adjusted z-score
Would you mind answering with just the numeric figure?

Query block: Using the record for CAGUCGUCAUAAUACUGCATT against SMC4 , state its measured median seed-adjusted z-score.
Result block: 0.646

Query block: Using the record for GAACAUUGGUGACUAUAUUTT against GRIP2 , state its measured median seed-adjusted z-score.
Result block: -0.0256

Query block: Using the record for GAAUGGUGUGGAUCUCCUATT against ARPC5 , state its measured median seed-adjusted z-score.
Result block: -0.479

Query block: Using the record for GGACAAAGUCUUAACAAAATT against SLC30A10 , state its measured median seed-adjusted z-score.
Result block: 0.523

Query block: Using the record for GGACAACCAUCUUCAAAGATT against ZKSCAN5 , state its measured median seed-adjusted z-score.
Result block: -0.229

Query block: Using the record for GAAGUGUUAUGUAAGGAGATT against EPHX2 , state its measured median seed-adjusted z-score.
Result block: 0

* * *

test: Novel Modifiers of Survival Motor Neuron (SMN) Protein: Gene Identification via Genome-wide siRNA Screen; details: HEK293T SMN2-luciferase reporter, siRNA knockdown, 72 h; actives lie on both sides;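 further: luminescence tracks full-length SMN protein made from the SMN2 reporter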
Among all 31,000 sequences or so, about 1,400 (4.5%) were called active. The entries come from a sample that favours actives as a whole.
measured_attribute: median seed-adjusted z-score

Query block: Using the record for CAACUAUAGUGCUCCCAGUTT against ZFP36L1 , state its measured median seed-adjusted z-score.
Result block: -0.933 (inactive)

Query block: Using the record for AGGAGCUUGUUGAUCCCUATT against SLC7A8 , state its measured median seed-adjusted z-score.
Result block: -0.134 (inactive)

Query block: Using the record for GGAUAUCAACUUAUUAGAUTT against XPO1 , state its measured median seed-adjusted z-score.
Result block: 1.12 (active)

Query block: Using the record for GCAGCUCACUUAAGGCCUATT against VPS18 , state its measured median seed-adjusted z-score.
Result block: 0.181 (inactive)

Query block: Using the record for ACAUCGUAGUGGGACGAAUTT against EXOSC2 , state its measured median seed-adjusted z-score.
Result block: -0.0798 (inactive)

Query block: Using the record for ACGGCUACGUGGUAAAGGATT against RPS6KA1 , state its measured median seed-adjusted z-score.
Result block: 0.194 (inactive)

Query block: Using the record for GGGUCCUGUUCAUAAAGGATT against KCTD10 , state its measured median seed-adjusted z-score.
Result block: -0.506 (inactive)

Query block: Using the record for CCAUCGGACUGACAGUGAATT against COPZ1 , state its measured median seed-adjusted z-score.
Result block: -1.02 (active)

Query block: Using the record for GCAUCAACUUUGUGCAUGATT against PLTP , state its measured median seed-adjusted z-score.
Result block: 1.09 (active)

Query block: Using the record for GAAUGAUGUUGACAUGAGUTT against SSR1 , state its measured median seed-adjusted z-score.
Result block: -0.434 (inactive)

Query block: Using the record for GGAGGACGGCUUCUACGAATT against KCNJ9 , state its measured median seed-adjusted z-score.
Result block: -0.0832 (inactive)

Query block: Using the record for GCAAGUACCUGUAAUUGAATT against KLF3 , state its measured median seed-adjusted z-score.
Result block: 0.628 (inactive)

Query block: Using the record for CAGAGGUUGUGACACGAAATT against PAK1 , state its measured median seed-adjusted z-score.
Result block: -0.168 (inactive)

Query block: Using the record for GUCUAUCUCUUGUCUAAAATT against HYAL4 , state its measured median seed-adjusted z-score.
Result block: -0.236 (inactive)

Query block: Using the record for GCAGCAUAUUAUAGACAAATT against ZBTB37 , state its measured median seed-adjusted z-score.
Result block: -0.219 (inactive)

* * *

experiment: Novel Modifiers of Survival Motor Neuron (SMN) Protein: Gene Identification via Genome-wide siRNA Screen; conditions: HEK293T SMN2-luciferase reporter, siRNA knockdown, 72 h; actives lie on both sides;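 further: luminescence tracks full-length SMN protein made from the SMN2 reporter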
In all, about 31,000 sequences went through this assay and about 1,400 (4.5%) were called active.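 How the source made its calls: active means median seed-adjusted z-score above 1 or below -1; inactive means the rest.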 Shown is part of a subset that was picked to be rich in actives.
# valid calls are 1 (active), -1 (inactive); nothing else

Query block: Look up the recorded call for GGAAGAUUACAACCGAACATT against ARHGEF12 in this test.
Result block: -1

Query block: Look up the recorded call for CCAUGUGAUUAUGUACUCATT against ELOVL4 in this test.
Result block: -1

Query block: Look up the recorded call for GCACGUACCGCUUCGAAAATT against SLC4A10 in this test.
Result block: -1

Query block: Look up the recorded call for GGUUUGAUGUAGGCCCAAUTT against MTFMT in this test.
Result block: -1

Query block: Look up the recorded call for CCAGCGCAACAAAGGAAAATT against HMX1 in this test.
Result block: 1

Query block: Look up the recorded call for CACUAGAUCGCGAUAAUAATT against DDB1 in this test.
Result block: -1

Query block: Look up the recorded call for GUGUGGUAGCUAUUGACAATT against TSC22D1 in this test.
Result block: -1

Query block: Look up the recorded call for CAUCAUCAGUUUUUCGAUUTT against AHCTF1 in this test.
Result block: -1

Query block: Look up the recorded call for GCUGCGUCUCCCUUCCAAATT against GP1BB in this test.
Result block: -1

Query block: Look up the recorded call for GAAAGACAGAUCAAGAUUUTT against HOXB7 in this test.
Result block: -1

Query block: Look up the recorded call for AGGUGAAUAUUGACCACUUTT against RGS5 in this test.
Result block: -1

Query block: Look up the recorded call for GGCACAUGGUUAACCUGGATT against GPX4 in this test.
Result block: 1

Query block: Look up the recorded call for ACUUUGUCCGUGUGUCUUATT against SLC30A3 in this test.
Result block: 1

Query block: Look up the recorded call for GCAGAAUUACAAGACAAGATT against VWA5A in this test.
Result block: -1

Query block: Look up the recorded call for AGCAAUAACUCGUGUAGCATT against EFNA2 in this test.
Result block: -1

Query block: Look up the recorded call for CGAAUCUCAUGUUCAGGAATT against LPA in this test.
Result block: -1

Query block: Look up the recorded call for GCAACCACCUAUAUCCUCATT against P2RY10 in this test.
Result block: -1

Query block: Look up the recorded call for UGAGGAUAGUGGGUCUGUATT against MEIS3 in this test.
Result block: -1

Query block: Look up the recorded call for UCCCAAACCUUCACCAUCATT against THAP8 in this test.
Result block: -1

Query block: Look up the recorded call for GGAUAACACUAAGUUUAGATT against SFRS1 in this test.
Result block: 1

Query block: Look up the recorded call for AGAGUGGAUUUGUACCAAATT against RAB39B in this test.
Result block: -1

Query block: Look up the recorded call for AGAUGUACAACGACCCAAATT against AGBL4 in this test.
Result block: -1

Query block: Look up the recorded call for CGGAAAAUCAGCAACAUCATT against EPS8L2 in this test.
Result block: -1

Query block: Look up the recorded call for GAGAGACUCAAGAACGUGATT against ARCN1 in this test.
Result block: 1

Query block: Look up the recorded call for AGUGUACAAUCGAUAAAAATT against ESR2 in this test.
Result block: 1

Query block: Look up the recorded call for GGUCCGGAAUGUGAACUUUTT against SERPINE2 in this test.
Result block: -1

Query block: Look up the recorded call for AGCUACCGAUGGAAGAGGATT against CLK3 in this test.
Result block: 1

Query block: Look up the recorded call for UCGAUGUACUGGAGACGGATT against NUCB1 in this test.
Result block: -1

Query block: Look up the recorded call for GUAGGAUUGUUUAGUGUAATT against CACNA1D in this test.
Result block: -1

Query block: Look up the recorded call for CCGUUAGACCAGAACGGAATT against MGA in this test.
Result block: -1

Query block: Look up the recorded call for GAAGAGAACUCUAAGAUCATT against CAMK1G in this test.
Result block: -1

Query block: Look up the recorded call for GAGUCACAUUUGAGGUUCATT against CSF2RA in this test.
Result block: -1

Query block: Look up the recorded call for GAGCUGUAUUUCUAUGUCATT against PLXNA3 in this test.
Result block: -1

Query block: Look up the recorded call for AGAGGAACUUUAUUCUUGATT against HNRNPUL2 in this test.
Result block: -1

Query block: Look up the recorded call for CAAGAUCAAGAGUUCCUGATT against CYP2B6 in this test.
Result block: -1

Query block: Look up the recorded call for CCUGUAGAUUUGUCAACUATT against RANBP2 in this test.
Result block: 1

Query block: Look up the recorded call for GCAGUUCCAUGGUACACCATT against ASAH1 in this test.
Result block: -1
